B1: TPR t1 (parent)
chain: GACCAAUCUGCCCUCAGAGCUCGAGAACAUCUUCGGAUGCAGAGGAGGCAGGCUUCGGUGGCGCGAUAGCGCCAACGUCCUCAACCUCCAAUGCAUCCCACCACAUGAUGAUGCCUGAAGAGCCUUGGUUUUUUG

Variants of: B1
ASSAY NOTES: polymerase ribozyme fitness, log enrichment relative to wild type (log ratio); higher = more active; in vitro selection for triplet polymerase activity
Exercise: state measured polymerase ribozyme fitness (log ratio) for each of the variants provided.

What does the data say about its polymerase ribozyme fitness (log ratio)? Entry: U9A C20U G71U A91C G107A G117A -6.01

Input U78G C97G -4.29

Input A27G C49U C76G -2.99

Input C76A C123G -0.164

Input A37G C72A A84G -1.24

Input C12U G51C C79U -2.71

Input C40U C88A C114G -2.99

Input G44A U96G U116A -5.13

Input A6U U30C -2.71

Input U7C A91U C94G -2.67

Input A43C G47A C115U U116C -3.25

Input C13U G71C -0.732

Input C31U G110A -4.35

Input U33A C88G -4.9

Input G61C C89U -1.58

Input C34G A43U G60C C82A A100U C114U U130C U132A U134C -5.7

Input U38G C80A C88U -4.45

Input C22U U38G C73U -4.47

Input G51U C64U G117A U132A -5.22

Input A18U C73U U96A -3.25

Input U21C G61A C114U U125A -1.45

Input C70A C102U -4.59

Input U7C C53G C56A G60A A111G 0.682

Input C49A C70U C82A C104U A105U C123G G135U -5.46

Input U7A U9C C12U G57C 0.0479

Input A6U C8A U129A -1.48

Input C70G U131A -2

Input C12A U92A -3.47

Input G17C G36A C114G G127A -5.69

Input U7G C15A G58C -0.977

Input G60C A66G C82A -1.84

Input A46U G47A A50G G60A -3.56

Input C4A G45C G120A G127C -1.29

Input A18U -2.13

Input U55A G71A C82A C115A -0.992

Input C34G C124U -4.28

Input A24G G48A C64U -2.39

Input G44C G60U U116C C124A -0.335

Input C72G C98U A105C -4.92

Input C4A G45A C72A C123A -0.972

Input C73A C102U U125G -2.45

Input C15U C104U G117U -0.366

Input A43G C64G U87G G110A -6.77

Input G48U C64A C86G A111G G135A -6.11

Input C3U A90G -0.86

Input G36A G42A A74G G127C -3.95

Input G42U A43C C73U G93A -2.39

Input U21A U33G G42C A43U G63U G117A -6.65

Input C12U G44C A50C -0.802

Input A108G U112A -2.86

Input G60U G77C C89U U132A -0.345

Input G48U A111C -0.214

Input C8G C20U G69U C101U -1.07

Input G44A G110A -2.08

Input G45A A50U U130C -0.0855

Input C62A G113U C114G -4.19

Input C8U G57U U78A C104A -1.43

Input U7A C12U A43U C49A C114G -1.69

Input C56U C72A A100C C104U A121G 1.21

Input A26G G71C C79G -3.86

Input C12A C40U C82G U96C C97U -6.18

Input G61A G127A -2.37

Input G51U G93A -4.12

Input G60U C79U U81A C97A U106A -6.56

Input U7A C12G C40G U106C C114G -5.02

Input G17A C20G A121G -4.27

Input G120A G127C G135U -0.669

Input C12G G58A G61A C62U C124G 0.824

Input G19U A74G -3.02

Input C80A G113U -4.78

Input C13A C56A -1.3

Input A46G C49G G69C C104U -3.16

Input G58U C62A U92A -5.81

Input C4A C72U -1.93

Input G63A A105G -3.92

Input G44U C62U G63C -2.59

Input A84U C102U C123U -1.1

Input C53U C85G -2.01

Input G42U C72A A74G U96C -3.45

Input G42U G44U C49A G69U U87G A119U G135A -1.59

Input G61A G63A -4.85

Input C86A G120C -0.326

Input A18C C40U A41G C56G C70U -4.84

Input A26U U54C U133A -4

Input A2C G71A C115A C123U -2.71

Input C4G C15A A16U C53A U78C C115U -3.67

Input U7C A18U C53U G60U G61U -4.77

Input C11A G47U G71A A83G G107C C124U -7.17

Input C11G G42C -1.1

Input A84U A105C U116C -5.74

Input G45A C99U -4.32
